# target.of.assay: Serine/threonine-protein kinase mTOR (Homo sapiens) (UniProt P42345)
# Sequence (P42345 2015-2114): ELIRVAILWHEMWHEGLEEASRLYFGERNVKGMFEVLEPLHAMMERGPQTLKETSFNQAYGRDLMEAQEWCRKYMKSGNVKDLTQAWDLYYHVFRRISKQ
# protocol.text: binders of mTOR FRB domain, biophysical, NMR (AID 1648)
# condition.info: NMR binding to FRB domain, chemical shift
The source made the active and inactive calls. How the calls were made is not given here.
Please respond with reported Kd for every item in the list.

Guide cases for Kd, answers given:
molecule	Kd
COc1c2ccoc2nc2c(OC)c(OCC(O)C(C)(C)O)ccc12 (stereo unspecified)	> 4 mM (inactive)
NS(=O)(=O)c1ccc(N=Cc2cccs2)cc1	> 4 mM (inactive)
CC(=O)N1N=C(N)SC1c1cccnc1 (stereo unspecified)	> 4 mM (inactive)
COc1ccc(/C=C2\NC(=S)N(C)C2=O)cc1O	> 4 mM (inactive)
CC1(C)C=CC(=O)[C@@]2(C)C1CC(=O)[C@]1(C)C2CC[C@@]2(C)[C@H](c3ccoc3)OC(=O)C3OC321 (stereo partly specified)	> 4 mM (inactive)

Could I get Kd for every one of these entries?
1. Cc1csc(NC(=O)c2ccoc2C)n1
2. O=C1NC(=S)NC(=O)C1=Cc1ccccc1O

Output line:
1: > 4 mM (inactive); 2: > 4 mM (inactive)

Fill in Kd for each of the 7 molecules listed.
1. CN1CCC(NC(=O)c2cnccn2)CC1
2. O=c1nc(N2CCCCC2)nc2n1CCO2
3. CC(C)CCCC(C)C1CCC2C3CC(=O)[C@H]4C[C@@H](O)CC[C@]4(C)C3CC[C@]12C (stereo partly specified)
4. Nc1ccccc1OC(F)(F)F
5. NC1=NN(c2ccccc2)C(=O)C1
6. C[C@@H]1C(=O)OC2[C@H](O)C34[C@@H]5OC(=O)[C@@]3(O[C@@H]3OC(=O)[C@H](O)[C@@]34[C@H](C(C)(C)C)[C@H]5O)[C@]21O (stereo partly specified)
7. c1coc(CNc2ncnc3nc[nH]c23)c1

Output line:
1. > 4 mM (inactive)
2. > 4 mM (inactive)
3. > 4 mM (inactive)
4. > 4 mM (inactive)
5. > 4 mM (inactive)
6. > 4 mM (inactive)
7. > 4 mM (inactive)

---

Provide the reported Kd of each item.
# target.of.assay: Serine/threonine-protein kinase mTOR (Homo sapiens) (UniProt P42345)
# protocol.text: binders of mTOR FRB domain, biophysical, NMR (AID 1648)
# condition.info: NMR binding to FRB domain, chemical shift
The source made the active and inactive calls. The rule behind the calls is not given here.

# example entries with known answers
>>> print(df.to_string())
                                   compound  test_readout          obs_value
0                     Cc1ccc(C)n1CCN1CCNCC1            Kd  > 4 mM (inactive)
1       N=C1/C(=C\c2ccccc2)C(=O)N=C2SC=NN12            Kd  > 4 mM (inactive)
2          COc1c(C(C)C)oc2cc3oc(=O)ccc3cc12            Kd  > 4 mM (inactive)
3  Nc1ccn(C2O[C@H](CO)[C@@H](O)[C@H]2O)c(=O)n1 (some centres not stated)            Kd  > 4 mM (inactive)
4                   S=C(NCc1ccco1)NN1CCOCC1            Kd  > 4 mM (inactive)
5  C[C@H]1CCCC(=O)CCC/C=C/c2cc(O)cc(O)c2C(=O)O1            Kd  > 4 mM (inactive)

For each entry beneath this line, provide reported Kd.
1. O=C(NCCCO)c1ccncc1
2. C[C@@H]1CC[C@H]2[C@@H](C)C(=O)O[C@@H]3OC4(C)CC[C@@H]1[C@]32OO4
3. NC(=O)CC[C@H](N)C(=O)O
4. CCN1CCC2(CC1)CC1CC3C=CC1(CN2C(C)=O)O3 (configuration not stated)
5. Nc1cc(C(=O)N2CCCC2)cc(C(=O)N2CCCC2)c1
6. COc1cnn(Cc2ccccc2)c(=O)c1Cl

Output line:
> 4 mM (inactive)
> 4 mM (inactive)
> 4 mM (inactive)
> 4 mM (inactive)
> 4 mM (inactive)
> 4 mM (inactive)
